B1: FAM189A2 (parent)
chain: CALNALTTTVCLVAAALRYLQIFA

- Variants of: B1
- assay_protocol: protein stability index of a GFP-peptide fusion (GPS, HEK-293T) (PSI 1-6); higher = more stable;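 further: lentivirally expressed fusions sorted by FACS into six bins by GFP to DsRed ratio, PSI derived from sequencing read proportions per bin multiplied by bin number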
- experimental_setup: c terminus: a fixed tail appended
readout_label: protein stability index
Enter a number only.

Recorded results for 5 variants are shown here.
{"columns": ["variant_spec", "readout_label", "result"],
 "data": [
  ["Q21G", "protein stability index", 2.9],
  ["A5P", "protein stability index", 2.7],
  ["L17N", "protein stability index", 3.87],
  ["L3C", "protein stability index", 4.07],
  ["L12F", "protein stability index", 2.56]
]}

Please look at this variant and report its protein stability index: `N4E` 2.1
